# Tested on: blood brain barrier (BBB)
# assay comment: BBB permeability to EB-albumin and Fluorescein in normal rat brains
# Assay type: in vivo
# measurement parameters: compounds at EC50 (Mannitol 25%); control 0.04 ± 0.01
For each of the molecules below, state its % EB/g brain.
Give bare numbers, in %.

molecule | measurement name | recorded value
CCCCCCCCCCCCC(CCC)C(=O)OCCOP(=O)([O-])[O-].[Na+].[Na+] (stereo not drawn) | % EB/g brain | 0.8
CCCCCCCCCCCCCCC(CCC)C(=O)[O-].[Na+] (stereo not drawn) [3,14-Na, reference compound] | % EB/g brain | 0.8

# evaluate next
Query: Lab note: record % EB/g brain of CCCCCCCCCCCCC(CCC)C(=O)OCCOP(=O)([O-])OCC[N+](C)(C)C (stereo not drawn) tested on blood brain barrier (BBB).
Response: 0.9

* * *

For each of the compounds below, state its Safety LC/MEC.
# Assay type: in vivo
# measurement parameters: rats; sodium salt
Numbers only.

Some compounds with known Safety LC/MEC results, for comparison:
compound | recorded value
CCCCCCCC(CCCCCCC)C(=O)[O-].[Na+] [7,7-Na, reference compound] | 2.7
CCCCCCCCCCCCCCCCC(CCC)C(=O)[O-].[Na+] (stereo not shown) [3,16-Na, reference compound] | 23.9
CCCCCCCCCCCCC(CCC)C(=O)OCCOP(=O)([O-])OCC[N+](C)(C)C (stereo not shown) | 1.5
CCCCCCCCCCCCC(CCC)C(=O)[O-].[Na+] (stereo not shown) [3,12-Na, reference compound] | 6.1
CCCCCCCCCCCCC(CCC)OP(=O)([O-])OCC[N+](C)(C)C (stereo not shown) | 3.5

Answer for every listed entry: what is its Safety LC/MEC? The entries follow.
1. CCCCCCCCCCCCCCC(CCC)C(=O)[O-].[Na+] (stereo not shown) [3,14-Na, reference compound]
2. CCCCCCCCCCCCC(CCC)C(=O)OCCOCCOP(=O)([O-])OCC[N+](C)(C)C (stereo not shown)

Response:
1: 8.6; 2: 20

* * *

# System: Chinese hamster ovary (CHO) AA8 cell line
# assay comment: LDH release toxicity assay in cultured CHO AA8 cells
# Type: cell-based
# measurement parameters: 1 hour incubation, read-out: LC50 (the source's name)
# Protocol: Various DP-BFA molecules were screened in cultured Chinese hamster ovary (CHO) AA8 cell line in order to establish their toxicity. LC50 values, i.e. the concentrations causing death in 50% of cell population, were calculated from dose response curves. […] Lactate dehydrogenase (LDH) release was used as an assay for the integrity of the cells membrane and, thus, for estimation of toxicity. […] After 10–20 minutes at room temperature, absorbance was measured using an Elisa Reader 490 nm. […]
For each of the molecules below, state its CC50.
Answers are plain numbers, in µM.

Some molecules with known CC50 results, for comparison:
molecule | unit info | recorded value
CCCCCCCCCCCCC(CCC)C(=O)OCCOCCOP(=O)([O-])[O-].[Na+].[Na+] (centres unmarked) | µM | 320
CCCCCCCC(CCCCCCC)OP(=O)(O)O [7,7-PO4Na2, 8-Pentadecanyl Disodium Phosphate] | µM | 320
CCCCCCCCCCCCC(CCC)OP(=O)([O-])[O-].[Na+].[Na+] (centres unmarked) [3,12-PO4Na2, 4-Hexadecanyl Disodium Phosphate] | µM | 320
CCCCCCCC(CCCCCCC)C(=O)[O-].[Na+] [7,7-Na, reference compound] | µM | 65

# evaluate next
Query: Consider the molecule CCCCCCCCCCCCC(CCC)C(=O)[O-].[Na+] (centres unmarked) [3,12-Na, reference compound] . State its measured CC50.
Response: 165

* * *

For each of the compounds below, state its Octanol mg/ml (solubility in octanol).
# assay comment: Octanol/saline solubility and partition coefficient, shake-flask technique
# measurement parameters: sodium salts of the branched fatty acids and their PO4 derivatives

Some compounds with known Octanol mg/ml (solubility in octanol) results, for comparison:
compound | recorded value
CCCCCCCCCCCCCCC(CCC)C(=O)[O-].[Na+] (stereo not shown) [3,14-Na, reference compound] | >20 mg/mL
CCCCCCCC(CCCCCCC)OP(=O)(O)O [7,7-PO4, 8-Pentadecyl phosphate] | >10 mg/mL
CCCCCCCCCCCCC(CCC)OCCOCCOP(=O)(O)O (stereo not shown) [3,12-(ether)-DEG-PO4] | >5 mg/mL
CCCCCCCCCCCCC(CCC)C(=O)[O-].[Na+] (stereo not shown) [3,12-Na, reference compound] | >20 mg/mL
CCCCCCCCCCCCCCCCC(CCC)C(=O)[O-].[Na+] (stereo not shown) [3,16-Na, reference compound] | >20 mg/mL

Answer for every listed entry: what is its Octanol mg/ml (solubility in octanol)? The entries follow.
1. CCCCCCCC(CCCCCCC)C(=O)[O-].[Na+] [7,7-Na, reference compound]
2. CCCCCCCCCCCCC(CCC)OP(=O)([O-])OCC[N+](C)(C)C (stereo not shown) [3,12-PC, 4-Hexadecanyl phosphocholine]

Response:
1. >50 mg/mL
2. >10 mg/mL

* * *

# assay comment: Octanol/saline solubility and partition coefficient, shake-flask technique
# measurement parameters: octanol/physiological saline
For each of the molecules below, state its logD.
One number for each entry.

molecule | measurement name | recorded value
CCCCCCCCCCCCC(CCC)C(=O)OCCOP(=O)([O-])OCC[N+](C)(C)C (centres unmarked) | logD | 1.22

# evaluate next
Query: Consider the molecule CCCCCCCCCCCCC(CCC)C(=O)OCCOCCOP(=O)([O-])OCC[N+](C)(C)C (centres unmarked) . State its measured logD.
Response: 0.73

* * *

For each of the molecules below, state its % EB/g brain.
# Tested on: blood brain barrier (BBB)
# assay comment: BBB permeability to EB-albumin and Fluorescein in normal rat brains
# Assay type: in vivo
# measurement parameters: compounds at EC50 (Mannitol 25%); control 0.04 ± 0.01
Numbers only, in %.

molecule | unit info | % EB/g brain
CCCCCCCCCCCCC(CCC)OCCOCCOP(=O)([O-])[O-].[Na+].[Na+] (stereo not shown) [3,12-(ether)-DEG-PO4Na2] | % | 4
CCCCCCCCCCCCC(CCC)OP(=O)([O-])[O-].[Na+].[Na+] (stereo not shown) [3,12-PO4Na2, 4-Hexadecanyl Disodium Phosphate] | % | 2.9
OC[C@@H](O)[C@@H](O)[C@H](O)[C@H](O)CO [Mannitol, mannitol, reference compound] | % | 0.6
CCCCCCCCCCCCC(CCC)C(=O)OCCOCCOP(=O)([O-])OCC[N+](C)(C)C (stereo not shown) | % | 0.6

Answer for every listed entry: what is its % EB/g brain? The entries follow.
1. CCCCCCCCCCCCC(CCC)C(=O)OCCOCCOP(=O)([O-])[O-].[Na+].[Na+] (stereo not shown)
2. CCCCCCCCCCCCC(CCC)OP(=O)([O-])OCC[N+](C)(C)C (stereo not shown)
3. CCCCCCCCCCCCC(CCC)C(=O)[O-].[Na+] (stereo not shown) [3,12-Na, reference compound]

Response:
1. 1.4
2. 0.8
3. 1.8

* * *

# Tested on: blood tumor barrier (BTB) of C6 glioma
# assay comment: BTB opening in C6 glioma-bearing rats, Evans blue accumulation in tumor
# Format: in vivo, Sprague Dawley rats
# measurement parameters: ratio of EB accumulated in tumor and non-tumor brain
measurement name: Specificity Tumor/Non-tumor (T/NT)
Numbers only.

Some compounds with known Specificity Tumor/Non-tumor (T/NT) results, for comparison:
compound | Specificity Tumor/Non-tumor (T/NT)
CCCCCCCCCCCCC(CCC)C(=O)OCCOP(=O)([O-])OCC[N+](C)(C)C (centres unmarked) [3,12-MEG-PC] | 2
CCCCCCCCCCCCC(CCC)C(=O)OCCOCCOP(=O)([O-])OCC[N+](C)(C)C (centres unmarked) [3,12-DEG-PC] | 2
CCCCCCCCCCCCC(CCC)OP(=O)([O-])OCC[N+](C)(C)C (centres unmarked) [3,12-PC, 4-Hexadecanyl phosphocholine] | 1.8
CCCCCCCCCCCCC(CCC)C(=O)[O-].[Na+] (centres unmarked) [3,12-Na, reference compound] | 1.1

# evaluate next
Query: Consider the compound OC[C@@H](O)[C@@H](O)[C@H](O)[C@H](O)CO [Mannitol, mannitol, reference compound] . State its measured Specificity Tumor/Non-tumor (T/NT).
Response: 2.1

* * *

For each of the compounds below, state its BBB EB μg/g Non-tumor brain.
# Test system: blood brain barrier (BBB)
# assay comment: BBB opening in C6 glioma-bearing rats, Evans blue accumulation in non-tumor brain
# Type: in vivo, Sprague Dawley rats
# measurement parameters: concentrations around EC50 (Mannitol 25%), unilateral 30 s infusion
Numbers only, in µg/g.

compound | assay target | BBB EB μg/g Non-tumor brain [µg/g]
CCCCCCCCCCCCC(CCC)OP(=O)([O-])OCC[N+](C)(C)C (centres unmarked) | blood brain barrier (BBB) | 10
CCCCCCCCCCCCC(CCC)C(=O)[O-].[Na+] (centres unmarked) [3,12-Na, reference compound] | blood brain barrier (BBB) | 43
CCCCCCCCCCCCC(CCC)C(=O)OCCOCCOP(=O)([O-])OCC[N+](C)(C)C (centres unmarked) | blood brain barrier (BBB) | 5

Answer for every listed entry: what is its BBB EB μg/g Non-tumor brain? The entries follow.
1. OC[C@@H](O)[C@@H](O)[C@H](O)[C@H](O)CO [Mannitol, mannitol, reference compound]
2. CCCCCCCCCCCCC(CCC)C(=O)OCCOP(=O)([O-])OCC[N+](C)(C)C (centres unmarked)

Response:
[7, 6]
